# TARGET_UNDER_TEST: Sodium-dependent noradrenaline transporter (Homo sapiens) (UniProt P23975)
# Sequence (P23975 whole entry): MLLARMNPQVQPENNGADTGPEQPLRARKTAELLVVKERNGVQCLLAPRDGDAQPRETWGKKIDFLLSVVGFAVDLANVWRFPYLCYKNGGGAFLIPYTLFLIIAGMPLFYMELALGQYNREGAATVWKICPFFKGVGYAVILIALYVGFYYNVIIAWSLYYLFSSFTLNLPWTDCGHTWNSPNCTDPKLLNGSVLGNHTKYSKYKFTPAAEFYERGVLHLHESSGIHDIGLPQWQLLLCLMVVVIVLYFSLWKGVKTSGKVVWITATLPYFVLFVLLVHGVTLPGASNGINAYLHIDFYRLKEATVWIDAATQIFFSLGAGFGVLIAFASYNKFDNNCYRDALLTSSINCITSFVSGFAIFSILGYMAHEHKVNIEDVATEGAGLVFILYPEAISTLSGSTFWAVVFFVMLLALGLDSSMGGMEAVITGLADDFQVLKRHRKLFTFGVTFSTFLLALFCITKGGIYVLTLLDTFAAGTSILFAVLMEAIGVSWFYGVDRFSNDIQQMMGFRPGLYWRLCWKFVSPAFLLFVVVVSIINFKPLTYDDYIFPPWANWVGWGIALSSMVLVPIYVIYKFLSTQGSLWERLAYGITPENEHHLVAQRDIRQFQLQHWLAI
# EXPERIMENT: Binding affinity at NET
EXPERIMENTAL_ENDPOINT: Activity (nM)

>  <COMPOUND_SMILES>
Fc1cccc(F)c1O[C@@H](c1ccccc1)[C@@H]1CNCCO1

>  <Activity (nM)>
7

$$$$

P = CCOc1ccccc1O[C@@H](c1ccccn1)[C@@H]1CNCCO1
Q = COc1cccc(F)c1O[C@@H](c1ccccc1)[C@@H]1CNCCO1
R = Brc1ccccc1O[C@@H](c1ccccc1)[C@H]1CNCCO1
S = CCOc1ccccc1O[C@@H](c1cccnc1)[C@@H]1CNCCO1
T = Cc1ccc(C(C)C)c(O[C@@H](c2ccccn2)[C@@H]2CNCCO2)c1
Reorder: Activity, max to min. List labels; respect the requested ordering. T, S, R, P, Q

----------
# TARGET_UNDER_TEST: Sodium-dependent serotonin transporter (Homo sapiens)
# EXPERIMENT: Binding affinity at SERT
EXPERIMENTAL_ENDPOINT: Activity (nM)

Reference set (6 entries):
>  <COMPOUND>
Brc1ccccc1O[C@@H](c1ccccc1)[C@@H]1CNCCO1

>  <Activity [nM]>
477

$$$$
>  <COMPOUND>
Fc1cccc(F)c1O[C@@H](c1ccccn1)[C@@H]1CNCCO1

>  <Activity [nM]>
8980

$$$$
>  <COMPOUND>
CCOc1ccccc1O[C@@H](c1cccc(OC)n1)[C@@H]1CNCCO1

>  <Activity [nM]>
676

$$$$
>  <COMPOUND>
Fc1ccccc1O[C@@H](c1ccccc1)[C@@H]1CNCCO1

>  <Activity [nM]>
6390

$$$$
>  <COMPOUND>
CCOc1ccccc1O[C@@H](c1ccc(CC)cn1)[C@@H]1CNCCO1

>  <Activity [nM]>
8210

$$$$
>  <COMPOUND>
Fc1cccc(F)c1O[C@@H](c1ccccc1)[C@@H]1CNCCO1

>  <Activity [nM]>
1210

$$$$

a = Brc1ccccc1O[C@@H](c1ccccc1)[C@H]1CNCCO1
b = Fc1ccc(O[C@@H](c2ccccc2)[C@@H]2CNCCO2)cc1
c = c1ccc([C@H](Oc2ccccc2C2CC2)[C@@H]2CNCCO2)cc1
Hey, can you sort those compounds up there by Activity, smallest first? List labels; respect the requested ordering. a, c, b
(a: 105 nM, c: 482 nM, b: 1620 nM)

1 = Fc1cccc(F)c1O[C@@H](C1=CCCC1)[C@@H]1CNCCO1
2 = CCOc1ccccc1O[C@@H](c1ccccn1)[C@@H]1CNCCO1
Please indicate which entry, 1 or 2 , has the lower recorded Activity value. Lab note: record the label of whichever item you select. 1
(1: 3700 nM, 2: 6910 nM)

a = Fc1cccc(OC(c2ccccc2)C2CNCCO2)c1 (configuration not stated)
b = c1ccc([C@H](Oc2ccccc2C2CC2)[C@H]2CNCCO2)cc1
c = Fc1cccc(F)c1O[C@@H](Cc1ccccc1)[C@@H]1CNCCO1
d = CCOc1ccccc1O[C@@H](c1ncccc1C)[C@@H]1CNCCO1
e = Fc1cccc(F)c1O[C@H](C1=CCCC1)[C@@H]1CNCCO1
Reorder: Activity, max to min. List labels; respect the requested ordering. d, e, c, b, a
